Molecular target: T1, HSL1 (HAESA-LIKE 1) ectodomain (Arabidopsis, UniProt Q9SGP2 17-618)
T1 chain: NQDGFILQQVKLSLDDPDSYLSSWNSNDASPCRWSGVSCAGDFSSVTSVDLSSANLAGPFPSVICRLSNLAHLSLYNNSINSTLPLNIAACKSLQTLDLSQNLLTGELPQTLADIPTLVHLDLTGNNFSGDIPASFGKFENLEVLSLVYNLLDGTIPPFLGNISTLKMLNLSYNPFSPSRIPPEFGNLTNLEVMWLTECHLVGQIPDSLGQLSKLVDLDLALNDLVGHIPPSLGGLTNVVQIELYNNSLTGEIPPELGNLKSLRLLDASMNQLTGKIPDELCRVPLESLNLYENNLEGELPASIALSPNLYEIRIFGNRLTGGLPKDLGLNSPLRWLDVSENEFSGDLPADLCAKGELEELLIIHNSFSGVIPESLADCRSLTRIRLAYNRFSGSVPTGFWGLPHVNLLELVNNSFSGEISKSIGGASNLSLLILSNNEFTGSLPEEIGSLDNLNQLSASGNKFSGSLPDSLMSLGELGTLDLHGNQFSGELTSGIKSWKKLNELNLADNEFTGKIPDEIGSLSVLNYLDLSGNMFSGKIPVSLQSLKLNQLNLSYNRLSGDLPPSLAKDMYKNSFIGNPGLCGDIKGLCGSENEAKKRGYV
Assay: ITC
value_type: pKd
pKd here: minus log base 10 of the concentration, concentration in moles per litre.

IN: Which pKd value is on record for RLVPSGPSPLHN (peptide, UniProt Q9FZE4 109-120, looked up, CLE9 mature dodecapeptide with Asn116 changed to Ser; also called Asn116^CLE9 to a Ser) [CLE9^N116S peptide] ?
OUT: 5.15
